// provenance: PubChem BioAssay (NCI)

system: SW-620 colon; test: NCI-60 one-dose screen, 48 h; conditions: 10 µM
About 83,000 compounds went through this panel and 20% of them were active in at least one assay; those are over-represented in the sample as a whole. Activity calls are given as the source filed them. Rule for the calls: active = growth percent below 10; inactive = the rest.
Labels: Yes for active, No for inactive

molecule="Cc1cc(C)c(N2C(=O)CC(Sc3ccccc3N)C2=O)c(C)c1 (stereo not drawn)" group=No
molecule=O=C1c2ccccc2CCC1(Br)Br group=Yes
molecule=ClCCn1c(CCl)nc2ccc(Cl)cc21 group=Yes
molecule=N#CC(=C1C=CC(=NO)C=C1)c1ccccc1 group=Yes
molecule=S=C1SCN(CCc2ccccc2)CN1CCc1ccccc1 group=No
molecule="COc1cccc(C(c2cc3c(cc2O)OCO3)N2CCOCC2)c1OC (stereo not drawn)" group=No
molecule="O=C1C(Cl)=C(Cl)C(Cl)(Cl)C(Cl)C1(Cl)Cl (stereo not drawn)" group=No
molecule=CN(C)CCNc1cccc2sc3ccc(O)cc3c(=O)c12 group=No
molecule=CCC(C)(c1ccc(O)c(C)c1)c1ccc(O)c(C)c1 group=No
molecule=Nc1nc(N)c2cc(Sc3ccc4ccccc4c3)ccc2n1 group=No
molecule=Cn1ncc2cc3c(Nc4ccc(Cl)cc4)cccc3nc21 group=No
molecule=O=c1[nH]cc(/C=N\Nc2ccccc2)c(=O)[nH]1 group=No
molecule=Cc1cc(Cl)ccc1NC(=O)/C(Cl)=C1/Sc2ccccc2NC1=O group=No
molecule=C=C1N(C)c2ccc(Cl)cc2C1(C)C group=No
molecule="CC1CCC2(C(=O)O)CCC3(C)C(=CCC4C5(C)CC(O)C(O)C(C)(CO)C5C(O)CC43C)C2C1C (stereo not drawn)" group=No
molecule=COc1ccc2oc(-c3ccc(Cl)cc3)c(N3CCN(C)CC3)c2c1 group=Yes
molecule=Cc1c(-c2ccccc2)[nH]c2ccccc12 group=No
molecule=CCC(=O)Oc1ccc(/C=N/NC(N)=S)nc1 group=No
molecule=COc1ccc(C(C#N)=C2C=CC(=NO)C=C2)cc1 group=No
molecule="Cc1cc(O)c2c(c1O)C(=O)C13C(=C2O)C(=O)C2C(O)C1C1C(O)C3C(=O)C3=C(O)c4c(O)cc(C)c(O)c4C(=O)C321 (stereo not drawn)" group=Yes
molecule=O=[N+]([O-])c1cc(S(=O)(=O)Nc2ccccc2)ccc1Cl group=No
molecule=O=S(=O)(c1cc(Cl)ccc1O)c1cc(Cl)ccc1O group=No
molecule=CN(C)c1ccc(/C=C/c2ccnc3ccccc23)cc1N group=No

----------
The following molecules are listed with their measured growth values.
system: SK-MEL-28 melanoma; test: NCI-60 one-dose screen, 48 h (100 = growth as untreated, 0 = no growth, -100 = all killed); details: 10 µM
This is part of a sample that, as a whole, favours compounds with a hit. Of some 83,000 tested, about 20% had one in any assay.
Value kind: growth (%)

molecule=Cc1c(-c2ccccc2)[nH]c2ccccc12 value_kind=growth recorded_measurement=121
molecule=CN(C)CCNc1cccc2sc3ccc(O)cc3c(=O)c12 value_kind=growth recorded_measurement=69.2
molecule=O=[N+]([O-])c1cc(S(=O)(=O)Nc2ccccc2)ccc1Cl value_kind=growth recorded_measurement=102
molecule=CN(CC(=O)O)c1ccc(/C=C/c2ccnc3ccccc23)cc1 value_kind=growth recorded_measurement=100
molecule=COc1ccc(N)c2c1C(=O)c1ccccc1C2=O value_kind=growth recorded_measurement=128
molecule="Cc1cc(C)c(N2C(=O)CC(Sc3ccccc3N)C2=O)c(C)c1 (centres undefined)" value_kind=growth recorded_measurement=60.7
molecule=CC(=O)O[C@H]1C(=O)[C@@]2(C)[C@H]([C@H](OC(=O)c3ccccc3)[C@]3(O)C[C@H](OC(=O)[C@H](O)[C@@H](NC(=O)c4ccccc4)c4ccccc4)C(C)=C1C3(C)C)[C@]1(OC(C)=O)CO[C@@H]1C[C@@H]2O value_kind=growth recorded_measurement=75.7
molecule=CC[C@@]1(OC(=O)CN(C)C)C(=O)OCc2c1cc1n(c2=O)Cc2cc3c(N)cccc3nc2-1 value_kind=growth recorded_measurement=16.5
molecule=CCC(C)(c1ccc(O)c(C)c1)c1ccc(O)c(C)c1 value_kind=growth recorded_measurement=133
molecule=S=C1SCN(CCc2ccccc2)CN1CCc1ccccc1 value_kind=growth recorded_measurement=92.4
molecule=O=C(NC(=S)Nc1ccccn1)c1ccccc1 value_kind=growth recorded_measurement=152
molecule=N#CC(=C1C=CC(=NO)C=C1)c1ccccc1 value_kind=growth recorded_measurement=76.3
molecule="O=C1C(Cl)=C(Cl)C(Cl)(Cl)C(Cl)C1(Cl)Cl (centres undefined)" value_kind=growth recorded_measurement=114
molecule=O=S(=O)(c1cc(Cl)ccc1O)c1cc(Cl)ccc1O value_kind=growth recorded_measurement=87.5
molecule=N#C/C(=C/N1C(=O)/C(=C/c2ccc([N+](=O)[O-])cc2)SC1=S)c1nc2ccccc2s1 value_kind=growth recorded_measurement=105
molecule=CCC(=O)Oc1ccc(/C=N/NC(N)=S)nc1 value_kind=growth recorded_measurement=79
molecule=Cc1cc(N=C2C=CC(=[N+](C)C)C=C2)c(N)cc1N value_kind=growth recorded_measurement=103
molecule=C=C1N(C)c2ccc(Cl)cc2C1(C)C value_kind=growth recorded_measurement=84.5
molecule=COc1ccc2oc(-c3ccc(Cl)cc3)c(N3CCN(C)CC3)c2c1 value_kind=growth recorded_measurement=-12.3
